# SYSTEM: IRAK4 (Homo sapiens (Human))
# Sequence (Q9NWZ3 whole entry): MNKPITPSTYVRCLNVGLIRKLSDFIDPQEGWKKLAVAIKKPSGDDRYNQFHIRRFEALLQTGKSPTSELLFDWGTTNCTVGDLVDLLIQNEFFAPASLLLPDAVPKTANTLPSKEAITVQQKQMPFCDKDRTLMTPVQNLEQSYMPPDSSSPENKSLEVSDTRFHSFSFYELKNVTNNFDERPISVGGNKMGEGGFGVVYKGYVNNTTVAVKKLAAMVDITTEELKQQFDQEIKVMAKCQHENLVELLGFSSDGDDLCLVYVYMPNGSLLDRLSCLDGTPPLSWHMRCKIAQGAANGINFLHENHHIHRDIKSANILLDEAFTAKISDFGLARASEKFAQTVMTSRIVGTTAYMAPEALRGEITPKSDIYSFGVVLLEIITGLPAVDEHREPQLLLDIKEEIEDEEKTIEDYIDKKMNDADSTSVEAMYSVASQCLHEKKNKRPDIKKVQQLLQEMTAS
# EXPERIMENTAL_PROTOCOL: IRAK4 Kinase Assay
# Format: biochemical
# EXPERIMENTAL_SETUP: IMAP fluorescence polarization, 0.5 nM GST tagged IRAK4, 100 μM ATP, 30 minutes at 25° C.; read-out: IRAK4 IC50
pIC50: −log10 of the molar value. Structures can show the parent of a compound that is named as a salt.
Param threshold (8) applies to pIC50; output condition met when value >= threshold, condition not met when value < threshold.

Answer whether pIC50 of Cn1cc(NC(=O)c2cnn3ccc(N4CC5CC4CN5)nc23)c(C(F)(F)F)n1 (stereo not shown) [Example 13, hydrochloride] is greater than or equal to 8. condition not met

Answer whether pIC50 of Cn1cc(NC(=O)c2cnn3ccc(N4CCNC(C(F)F)C4)nc23)c(C(F)(F)F)n1 (stereo not shown) [Example 16, formate] is greater than or equal to 8. condition not met

Answer whether pIC50 of N[C@H]1CCCC[C@H]1Nc1ccn2ncc(C(=O)Nc3c[nH]nc3C(F)(F)F)c2n1 [Example 301, trifluoroacetate] is greater than or equal to 8. condition met

Answer whether pIC50 of Cn1cc(NC(=O)c2cnn3ccc(N4CCN5CCCC5C4)nc23)c(C(F)(F)F)n1 (stereo not shown) is greater than or equal to 8. condition not met

Answer whether pIC50 of N[C@@H]1[C@H](Nc2ccn3ncc(C(=O)Nc4ccccc4Cl)c3n2)CCCC1(F)F [Example 106, trifluoroacetate] is greater than or equal to 8. condition not met

----------
# SYSTEM: UniProt:Q9NWZ3
# EXPERIMENTAL_PROTOCOL: IRAK4 Kinase Assay
# Type: biochemical
# EXPERIMENTAL_SETUP: IMAP fluorescence polarization, 0.5 nM GST tagged IRAK4, 100 μM ATP, 30 minutes at 25° C.; read-out: IRAK4 IC50
pIC50: −log10 of the molar value. Where a name gives a salt, the structure may show the parent alone.
Param threshold (9) applies to pIC50; output yes when value >= threshold, no when value < threshold.

Answered cases to consult:
Answer whether pIC50 of N[C@@H]1[C@H](Nc2ccn3ncc(C(=O)Nc4ccsc4Br)c3n2)CCCC1(F)F [Example 128, trifluoroacetate] is greater than or equal to 9. no

Answer whether pIC50 of Cn1cc(NC(=O)c2cnn3ccc(N[C@@H]4CCCNC4)nc23)c(C(F)(F)F)n1 [Example 9, trifluoroacetate] is greater than or equal to 9. yes

New cases:
Answer whether pIC50 of Cn1cc(NC(=O)c2cnn3ccc(N[C@H]4CNCCC4(F)F)nc23)c(C(F)F)n1 (single isomer, unassigned) [Example 244] is greater than or equal to 9. yes

Answer whether pIC50 of Cn1cc(NC(=O)c2cnn3ccc(N[C@@H]4CCCC[C@@H]4N)nc23)c(Br)n1 [Example 138, trifluoroacetate] is greater than or equal to 9. yes

Answer whether pIC50 of N[C@H]1CCCC[C@H]1Nc1ccn2ncc(C(=O)Nc3csc(CO)c3)c2n1 is greater than or equal to 9. no

Answer whether pIC50 of Cn1cc(NC(=O)c2cnn3ccc(N[C@H]4CNCCC4(F)F)nc23)c(C(F)F)n1 (single isomer, unassigned) [Example 242] is greater than or equal to 9. no

Answer whether pIC50 of Cn1cc(NC(=O)c2cnn3ccc(N4C[C@@H]5CC[C@H]4CN5)nc23)c(C(F)F)n1 (single isomer, unassigned) [Example 158, trifluoroacetate] is greater than or equal to 9. no

Answer whether pIC50 of Cn1cc(NC(=O)c2cnn3ccc(NC4CCNCC4)nc23)c(C(F)(F)F)n1 [Example 7, trifluoroacetate] is greater than or equal to 9. no

Answer whether pIC50 of N[C@H]1CCCC[C@H]1Nc1ccn2ncc(C(=O)Nc3ccsc3)c2n1 [Example 181, trifluoroacetate] is greater than or equal to 9. no

Answer whether pIC50 of CC(C)n1cc(NC(=O)c2cnn3ccc(N[C@@H]4CCCC(F)(F)[C@@H]4N)nc23)c(C(F)(F)F)n1 [Example 56, trifluoroacetate] is greater than or equal to 9. no

Answer whether pIC50 of Cn1cc(NC(=O)c2cnn3ccc(N4CC[C@H](F)[C@H](N)C4)nc23)c(C(F)F)n1 (single isomer, unassigned) [Example 179, trifluoroacetate] is greater than or equal to 9. yes
